tested on: RARg homodimer (NR concentration 270 nM); experiment: PBM binding z-score (relative to random genomic background probes); higher = stronger binding; sequences stand for … in GC…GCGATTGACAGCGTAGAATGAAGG

monomer_sequence | experimental_target | PBM binding z-score
CCTTACGGGTCACTGACAGGTTTTAGCATTTGGA | RARg homodimer (NR concentration 270 nM) | 4.41
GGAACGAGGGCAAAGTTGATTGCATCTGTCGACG | RARg homodimer (NR concentration 270 nM) | 1.34
ATCGAAAGGTTGAGGTGAGTATAGAGAAAGGGAA | RARg homodimer (NR concentration 270 nM) | 1.25
GCTTGTAGATCAAGCTTAAGAAAGACTAAGCTAA | RARg homodimer (NR concentration 270 nM) | -0.459
ATCTCCAGGTAAAGTTCAGTGAAAGATCGATAGA | RARg homodimer (NR concentration 270 nM) | 2.51
CCGACTGGGGCATAAGGTTACCAAAAGCCAGCCC | RARg homodimer (NR concentration 270 nM) | 0.905
CTCGAAAGGTCGGTTGAGGTGAGTATCCGGATAA | RARg homodimer (NR concentration 270 nM) | 2.94
ATCGAAAGGTCGACGGTGAGTATACCCACCCGAA | RARg homodimer (NR concentration 270 nM) | 3.92
CATACAAGGTCAGCTAGGCCAGAGTAGGGACGGC | RARg homodimer (NR concentration 270 nM) | 5.79
CGAACTAGGTCATCCAGGACAGTTAATACATTGA | RARg homodimer (NR concentration 270 nM) | 4.66
TCGAGTAGATTAGGGGCATTCAGAATGGCGTCGA | RARg homodimer (NR concentration 270 nM) | -0.446
CGAACTAGGTCAGAACAGGACTGTGAAGGATGAT | RARg homodimer (NR concentration 270 nM) | 2.99
CAAACTAGGTCGAGGTCAAAGTCGGTTTGTGCCA | RARg homodimer (NR concentration 270 nM) | 4.79
TCTTGTAGAGCAGCAGGTTAAGAAAGCTGGCCAA | RARg homodimer (NR concentration 270 nM) | -0.758
CCTACTGGGCCACGAAAGATCATTGATTCAGTGA | RARg homodimer (NR concentration 270 nM) | 0.283
ACTATTAATTGACTTAGGGCAACCGATACGACGC | RARg homodimer (NR concentration 270 nM) | 0.814
ATCTCTAGGTAAAGTGCAGTGAAAGATCGATAGA | RARg homodimer (NR concentration 270 nM) | 0.497
ATCTCTAGGTAACCAAGTACAGTGAATGCCGAAC | RARg homodimer (NR concentration 270 nM) | 0.577
TACCCTAGGTCATGCGGGCCAGTATAGTGTCGGC | RARg homodimer (NR concentration 270 nM) | 4.89
CGAACTAGGTCAGAACAGGACAGCGAAGGATGAT | RARg homodimer (NR concentration 270 nM) | 3.18
ATCGAAAGGTCGAGGTGAGTATAGAGAAAGGGAA | RARg homodimer (NR concentration 270 nM) | 4.51
TCATATCGGTAATACAGGTGAAAGTCGGCATCTA | RARg homodimer (NR concentration 270 nM) | 0.441
CGTCAACGTTCAAGGTAACGTAACAGAAAGCAGC | RARg homodimer (NR concentration 270 nM) | 0.672
CCTGCTACGTCAATGGTCAGCTAAAGCAGCTCGC | RARg homodimer (NR concentration 270 nM) | -0.342
CGTCCAAGGTCAGGGTCAGTGAAAGAGACTCGAA | RARg homodimer (NR concentration 270 nM) | 6.48
TGTCAAAGTTCCAAGGTAACGTAAGTATCCACAC | RARg homodimer (NR concentration 270 nM) | 0.719
AGTCAAATTTCAGGACGAGGTAACGTAAAGCACG | RARg homodimer (NR concentration 270 nM) | 0.438
TCATATAGGTAAAACAGGTGAAAGTCGGCATCTA | RARg homodimer (NR concentration 270 nM) | 0.226
TTACCAAGGTGAGCTGAGGTAGTTGATCCAACTC | RARg homodimer (NR concentration 270 nM) | 0.00581
GTACCAAGGTGAATAGTTCGTTGATGAGTAGGCG | RARg homodimer (NR concentration 270 nM) | 1.34
CGAACTAGCTCATTGACAGGACAGTGAATAGTAA | RARg homodimer (NR concentration 270 nM) | 0.0455
CGTCCAAGGTCAGAGAGATCAGTGAATGCCGAGT | RARg homodimer (NR concentration 270 nM) | 5.03
CCTACTGGGCCAAAAAGGACATTGATGCCGATAA | RARg homodimer (NR concentration 270 nM) | 0.586
ATATGTAGGTTACATCCGGGTCATTCACGCTATG | RARg homodimer (NR concentration 270 nM) | 2.31
CAAACTAGGTCACCGAGGTCAAAGTCCGTGCGTA | RARg homodimer (NR concentration 270 nM) | 7.18
CCTTACGCGTCACGAGGTTATAGCACGACGAGCG | RARg homodimer (NR concentration 270 nM) | 0.604
ATATGTTGGTTACATCCGGGTCATTCAGGCTATG | RARg homodimer (NR concentration 270 nM) | 1.29
ATATGTAGGTTAAGGTTCATTCAGGTTGGTTCGC | RARg homodimer (NR concentration 270 nM) | 1.47
TCTTGTAGATCAACAGGAGGTTAAGAGAGATCGA | RARg homodimer (NR concentration 270 nM) | 0.453
CCTATTAGTTGACCATAAGCGCAACCGAAGCTCG | RARg homodimer (NR concentration 270 nM) | 0.455
TCAGACAGGTCAAGGTAACTCAGGTACGCAGTCG | RARg homodimer (NR concentration 270 nM) | 4.8
ATATGTAGGTTACATCCGGGTCATTCCGGCTATG | RARg homodimer (NR concentration 270 nM) | 2.07
CCTTACGGATCACTCCAGGTTATAGCATCGGAGT | RARg homodimer (NR concentration 270 nM) | 0.583
ACACACAGGTGAGTGAAGGTAACTCAGCTGGACG | RARg homodimer (NR concentration 270 nM) | 0.59
TCTGCTAGGTCAGTTAGTCAGCTAACGAGCTGCC | RARg homodimer (NR concentration 270 nM) | 3.3
CGTCCAAGGTAATAGGAGGTCAGTGAAGACAGAT | RARg homodimer (NR concentration 270 nM) | 2.21
CAAACTGGGTCACAGAGGTCAAAGTCCGTGCGTA | RARg homodimer (NR concentration 270 nM) | 7.26
CTCGAAAGGTCCTGCTCAGGTGAGTATACCAAAC | RARg homodimer (NR concentration 270 nM) | 0.414
TCTTGTCGATCAGCAGGTTAAGAAAGCTGGCCAA | RARg homodimer (NR concentration 270 nM) | -0.509
ACTCGGACGACAAAGGTCAGAGCTACGCCAGTGA | RARg homodimer (NR concentration 270 nM) | 4.6
CCAAGTAGGTTATGGGGCATTCAGGCAACGGTGA | RARg homodimer (NR concentration 270 nM) | 0.608
